These measurements were taken from the supplement of paper PMC4840960.

- Test system: E18 rat cortical neuron-glia co-culture
- protocol-notes: fiber score / MBP score (myelination specific beyond OL differentiation) (ratio); higher = more myelination-specific MBP alignment
- conditions-used: 5 µM; treatment time: 8 days (DIV5-DIV13)
Please go through the items and note down their fiber score / MBP score.

Check out these entries, answers already filled in.
For COc1ccc2[nH]cc(CCN)c2c1 [5-Methoxytryptamine] , write its fiber score / MBP score.
0.737

Please indicate fiber score / MBP score recorded for CN1C(=O)CN=C(c2ccccc2)c2cc([N+](=O)[O-])ccc21 [Nimetazepam]
0.878

Report measured fiber score / MBP score; entry is CN1CC[C@@H](c2ccc(F)cc2)[C@H](COc2ccc3c(c2)OCO3)C1 [N-Methylparoxetine]
0.379

Dear colleague, could you please provide fiber score / MBP score for the compounds listed below?
1. C[N+]1(CCC(C(N)=O)(c2ccccc2)c2ccccc2)CCCCC1 [Fenpiverinium]
2. C[C@]12CC[C@H]3[C@@H](CCC4=CC(=O)CC[C@@]43C)[C@@H]1CC[C@@H]2O [Testosterone]
3. CCCCC/C=C\C/C=C\C/C=C\C/C=C\CCCC(=O)Nc1ccc(O)cc1
4. COC(=O)N1CCN(C(=O)Cc2ccc(Cl)c(Cl)c2)C(CN2CCCC2)C1 (centres undefined)
5. c1ccc2c3c([nH]c2c1)CNCC3 [Tryptoline]
6. C[C@]12C/C(=C/O)C(=O)C[C@@H]1CC[C@@H]1[C@@H]2CC[C@@]2(C)[C@H]1CC[C@]2(C)O [Oxymetholone]

1: 1.19; 2: 0.928; 3: 0.96; 4: 0.389; 5: 0.905; 6: 0.965

###

Record form. Attribute: myelination. Fill in for each entry.
- System: E18 rat cortical neuron-glia co-culture
- protocol-notes: myelination (MBP fiber length per Olig2+ nucleus), % of 1 µM DAPT response (DMSO = 0) (% of DAPT); higher = more myelination, active = 50 or more
- conditions-used: 5 µM; treatment time: 8 days (DIV5-DIV13)
Answers are plain numbers.

See these solved cases before continuing.
Given the compound C[C@H]1CCC[C@H](O)CCCCCc2cc(O)cc(O)c2C(=O)O1 , write its reported myelination.
-5.48

Answer with reported myelination of Cc1ccc(-c2nc3ccc(C)cn3c2CC(=O)N(C)C)cc1
-13.3

Fill in reported myelination for this entry: c1ccc2c(c1)Nc1ccccc1S2
-5.33

Specify reported myelination for the compound shown: CS(=O)(=O)Nc1ccc(Cc2noc(-c3ccc4[nH]cc(CCN)c4c3)n2)cc1
-17.8

// fetch myelination given entry C[C@]12C/C(=C/O)C(=O)C[C@@H]1CC[C@@H]1[C@@H]2CC[C@@]2(C)[C@H]1CC[C@]2(C)O
-8.04

Query myelination for CCC1(c2ccc(N)cc2)CCC(=O)NC1=O (stereo not drawn) [Aminoglutethimide]
-5.16

Complete the entry with myelination for CC(=O)O[C@H]1C[C@@H]2CC[C@@H]3[C@H](CC[C@@]4(C)[C@H]3C[C@H]([N+]3(C)CCCCC3)[C@@H]4OC(C)=O)[C@@]2(C)C[C@@H]1[N+]1(C)CCCCC1
2.32

---
Consider the compound CCOC(=O)C1(c2ccccc2)CCN(CCC(C#N)(c2ccccc2)c2ccccc2)CC1 [Diphenoxylate] and give its recorded myelination.
11.5

###

- Test system: E18 rat cortical neuron-glia co-culture
- protocol-notes: myelination (MBP fiber length per Olig2+ nucleus), % of 1 µM DAPT response (DMSO = 0) (% of DAPT); higher = more myelination, active = 50 or more
- conditions-used: 1 µM; treatment time: 8 days (DIV5-DIV13)
Please provide measured myelination for the entries that follow.
Give bare numbers.

Items follow; give myelination for each.
1. NC(=O)C[S+]([O-])C(c1ccccc1)c1ccccc1 (centres undefined)
2. Cc1nnc2n1-c1ccc(Cl)cc1C(c1ccccc1)=NC2

1. -9.51
2. -26.1
